Assay procedure: melting temperature; fluorescence melt of hairpins on a sequencing array, two-state fit, raised by 9.35 °C to match UV melts
Run parameters: sodium 0.088 M
Measure: Tm (°C)
Output spec: scalar in °C, unitless text.

A selection of reference data follows.
>>> df
                          chain_sequence  numeric_readout
0  GTCTCGCCGAAAGGCGAC (((..(((....))))))             39.5
1    GTTTCCGAAAGGAAAAC ((((((....))).)))             45.1
2      GATCTGCTCACAGATC ((((((....))))))             51.6
3  GCCAACGAAAGTTGTGGC ((((((....)))..)))             48.4
4      GATCCGGAACCGGATC ((((((....))))))             62.5
5      GATCGGCCAGCCGATC ((((((....))))))             65.9

Looking up GCTTGGCGAAAGCAGAGC (((..((....))..))) , I found its Tm recorded as 54

Looking up GGGACATCGAAAGATCCC (((..(((....)))))) , I found its Tm recorded as 36.1

Looking up GATCTTTCACAAGATC ((((((....)))))) , I found its Tm recorded as 43.1

Looking up GCACACGAAAGTGAATGC ((((((....)))..))) , I found its Tm recorded as 42.8

Looking up GATCACAGTTGTGATC ((((((....)))))) , I found its Tm recorded as 60.4

Looking up GCGATGTCGAAAGACCGC (((..(((....)))))) , I found its Tm recorded as 51
